B1: Far upstream element-binding protein 3, residues 75 to 150; numbered along this chain, Q96I24 (parent)
chain: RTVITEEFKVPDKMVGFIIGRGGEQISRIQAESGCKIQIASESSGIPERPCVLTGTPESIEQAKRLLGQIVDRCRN

# Variants of: B1
# TEST NAME: abundance fitness (aPCA) (normalised: wild type 0, dead -1); higher = more abundant; growth selection in yeast, the domain comes from the species named
# RECORDED CONDITIONS: Homo sapiens
READOUT KIND: abundance fitness

Some variants with recorded abundance fitness:
RTVITEEFKVPDKNVGFIIGRGGEQISRIQAESGCKIQIASESSGIPERPCVLTGTPESIEQAKRLLGQIVDRCRN [M14N]    -0.101
RTVITEEFKVPDKMVGFIIGRGGEQISRIQAESGCKIQIASESSGIPERPCVQTGTPESIEQAKRLLGQIVDRCRN [L53Q]    -1.13
RTVITEEFKVPDKMVGFIIGRGGEQISRIQAESGCKIQIASESSGIPERPCVLTGTPESIEQAKRLLGQIVLRCRN [D72L]    -0.083
RTVITEEFKVPDKMVGFIIGRGGEQISRIQAESGCKIQIASESSGIPERPCHLTGTPESIEQAKRLLGQIVDRCRN [V52H]    -0.064
RTVITEEFKVPDKMVGFIIGRGGEQISRIQAESGCKIQIASESSGIPERRCVLTGTPESIEQAKRLLGQIVDRCRN [P50R]    -0.06

Input: Which abundance fitness value is on record for RTVITEEFKVPYKMVGFIIGRGGEQISRIQAESGCKIQIASESSGIPERPCVLTGTPESIEQAKRLLGQIVDRCRN [D12Y] ?
Output: -0.116

Input: Continue with RTVITEEFKVPDKMVMFIIGRGGEQISRIQAESGCKIQIASESSGIPERPCVLTGTPESIEQAKRLLGQIVDRCRN [G16M]
Output: -0.12

Input: Try this variant too: RTVITEEFKVPDKMVGFIIGRGGEQISRIQAESGCKIQIASESSGIPERPCVLTGTPNSIEQAKRLLGQIVDRCRN [E58N]
Output: -0.091
